This collection of values is drawn from patent US20240116985A1.

# Tested Target: T1, B-cat-Halo (UniProt P35222 1-781)
# T1 sequence (looked up): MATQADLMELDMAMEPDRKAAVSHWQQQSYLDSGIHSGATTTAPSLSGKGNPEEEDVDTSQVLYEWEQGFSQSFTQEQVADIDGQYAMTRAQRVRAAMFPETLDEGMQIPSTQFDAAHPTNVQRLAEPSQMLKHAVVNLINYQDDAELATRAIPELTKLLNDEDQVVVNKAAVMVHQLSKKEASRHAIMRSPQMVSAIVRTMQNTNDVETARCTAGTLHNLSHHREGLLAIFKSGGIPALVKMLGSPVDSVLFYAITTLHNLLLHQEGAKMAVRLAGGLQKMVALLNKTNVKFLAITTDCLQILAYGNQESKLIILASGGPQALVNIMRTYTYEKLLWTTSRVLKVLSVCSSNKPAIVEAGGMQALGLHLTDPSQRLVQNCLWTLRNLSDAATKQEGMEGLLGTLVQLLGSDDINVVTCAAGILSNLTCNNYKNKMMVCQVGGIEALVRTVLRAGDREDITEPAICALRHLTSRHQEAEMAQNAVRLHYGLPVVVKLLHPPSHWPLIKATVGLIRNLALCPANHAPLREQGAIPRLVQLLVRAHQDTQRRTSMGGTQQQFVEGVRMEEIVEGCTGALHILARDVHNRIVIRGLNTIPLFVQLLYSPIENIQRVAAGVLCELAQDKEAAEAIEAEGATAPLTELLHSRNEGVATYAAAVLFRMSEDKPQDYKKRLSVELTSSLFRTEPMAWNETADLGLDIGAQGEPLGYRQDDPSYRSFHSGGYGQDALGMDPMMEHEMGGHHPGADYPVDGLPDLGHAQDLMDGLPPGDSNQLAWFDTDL
# Protocol Summary: cell-based or functional assay
Starred links: 1 amine or outer side, 2 acyl side, 3 side chain; linkers in the order of their positions; H or OH if unused. Positions of bridges follow the written chain, without caps; N, C: chain ends. Non-standard residues stand in square brackets, D forms with d. Primed or numbered codes have the meaning given here. (MePipAc)GA = (S)-2-amino-3-(N-(carboxymethyl)-2-(4-methylpiperazin-1-yl)acetamido)propanoic acid, CN1CCN(CC(=O)N(CC(=O)[*:3])C[C@H](N[*:1])C(=O)[*:2])CC1; (4AcMePip)GA = (S)-2-amino-3-(N-(carboxymethyl)-1-methylpiperidine-4-carboxamido)propanoic acid, CN1CCC(C(=O)N(CC(=O)[*:3])C[C@H](N[*:1])C(=O)[*:2])CC1; PyrS2″ = (S)-3-amino-1-((pent-4-en-1-yloxy)carbonyl)pyrrolidine-3-carboxylic acid (stapling residue), C=CCCCOC(=O)N1CC[C@@](N[*:1])(C(=O)[*:2])C1; (NdiMeButC)GA = (S)-2-amino-3-(N-(carboxymethyl)-4-(dimethylamino)butanamido)propanoic acid, CN(C)CCCC(=O)N(CC(=O)[*:3])C[C@H](N[*:1])C(=O)[*:2]; PyrS2 = (S)-3-amino-1-((pent-4-en-1-yloxy)carbonyl)pyrrolidine-3-carboxylic acid, C=CCCCOC(=O)N1CC[C@@](N[*:1])(C(=O)[*:2])C1; B5(22) = 2-amino-2-(pent-4-en-1-yl)hept-6-enoic acid (two alkene side chains), C=CCCCC(CCCC=C)(N[*:1])C(=O)[*:2]; B5(3) = 2,2-bis(4-pentenyl)glycine (stitching residue), C=CCCCC(CCCC=C)(N[*:1])C(=O)[*:2]; Bta = N[C@@H](Cc1csc2ccccc12)C(=O)O; αAllylPro = C=CC[C@@]1(C(=O)O)CCCN1; tBuAla = CC(C)(C)C[C@H](N)C(=O)O; 3Thi = N[C@@H](Cc1ccsc1)C(=O)O
Parameter: NanoBRET Abs IC50

Use these answered entries as a reference point.
Need NanoBRET Abs IC50 of Ac-[αAllylPro]D[tBuAla][B5(22)]D[(4AcMePip)GA]AAFL[PyrS2][3Thi][Bta]Q-NH2 (staple 1-4, 4-11) [I-2235] , thanks. > 20 µM

// next record Ac-[αAllylPro]D[tBuAla][B5(3)]D[(NdiMeButC)GA]AAFL[PyrS2″][3Thi][Bta]Q-NH2 (staple 1-4, 4-11) [I-2233] > 20 µM

Query binder follows.
Need NanoBRET Abs IC50 of Ac-[αAllylPro]D[tBuAla][B5(22)]D[(MePipAc)GA]AAFL[PyrS2][3Thi][Bta]Q-NH2 (staple 1-4, 4-11) [I-2240] , thanks. > 20 µM
